Assay: Pharmacokinetic study in rats
Type: in vivo
Settings: in vivo; Rat PO 10 mg/kg, suspension in 0.5% HPMC K4M
Procedure: The crystal form A of the p-tosylate of the compound was fully suspended in an aqueous solution of 0.5% HPMC (hydroxypropylmethyl cellulose) K4M, and then administered to rats by gavage at a dosage of 10 mg/kg and 30 mg/kg, with three rats in each parallel experiment. The amount of the compound was fully converted into the amount of an equivalent free base.
OUTCOME MEASURE: half-life (h)

[[record]]
molecule = "C[C@@H]1COC2NC=NC=C2c2cc(C(=O)Nc3ccc(OC(F)(F)Cl)cc3)cc3nc(C(F)F)n1c23 (stereo partly shown) [Crystal form A of p-tosylate]"
outcome_measure = "half-life"
assay_result = 3.55

